tested on: A549/ATCC NSCLC; assay: NCI-60 one-dose screen, 48 h (100 = growth as untreated, 0 = no growth, -100 = all killed); conditions: 10 µM unless noted
Compounds without any hit were thinned out: in the full panel of roughly 83,000, 20% have a hit.
Consider the following compounds and their measured growth readings.
measure: growth (%)

compound | measure | resultUnit | reading
Cc1cc(C)c(S(=O)O)c(C)c1 | growth | % | 109
CN1CCC(OC2c3ccccc3CCc3ccccc32)CC1 | growth | % | 96.2
O=C1/C(=C/c2ccc(F)cc2)CN(Cc2cn(CCNc3ccnc4cc(Cl)ccc34)nn2)C/C1=C\c1ccc(F)cc1 | growth | % | -31.3
COc1cc(-c2nc3ccccc3o2)cc(CN2CCN(c3ccccc3)CC2)c1O | growth | % | 30.2
Cc1ccc(S(=O)(=O)N2CCc3ccc(O)c4c3C2Cc2cc(Cl)ccc2-4)cc1 (stereo not given) | growth | % | 53.9
C[C@H]1C(=O)C23CCC1C[C@@]21O[C@@H]2C(C)(C)C=CC(=O)C23COC1=O | growth | % | 83.9
NC(=O)c1nc2c([nH]c1=O)CCCC2 | growth | % | 103
CCCCCCCCCCCCCCNc1nc(CO)ncc1-c1ccc(C(F)(F)F)cc1 | growth | % | 98.9
C[C@@H](Oc1cc(-c2cnn(C3CC4(CCCNC4)C3)c2)cnc1N)c1c(Cl)ccc(F)c1Cl (stereo not given in full) | growth | % | 16.6
O=C(NCc1ccco1)C1CCN(S(=O)(=O)c2ccc(Cl)cc2)CC1 | growth | % | 74.9
